# TARGET ENTITY: recombinant human PI3Kγ (aa144-1102)-6His (Homo sapiens (Human))
# Sequence (P48736 144-1102): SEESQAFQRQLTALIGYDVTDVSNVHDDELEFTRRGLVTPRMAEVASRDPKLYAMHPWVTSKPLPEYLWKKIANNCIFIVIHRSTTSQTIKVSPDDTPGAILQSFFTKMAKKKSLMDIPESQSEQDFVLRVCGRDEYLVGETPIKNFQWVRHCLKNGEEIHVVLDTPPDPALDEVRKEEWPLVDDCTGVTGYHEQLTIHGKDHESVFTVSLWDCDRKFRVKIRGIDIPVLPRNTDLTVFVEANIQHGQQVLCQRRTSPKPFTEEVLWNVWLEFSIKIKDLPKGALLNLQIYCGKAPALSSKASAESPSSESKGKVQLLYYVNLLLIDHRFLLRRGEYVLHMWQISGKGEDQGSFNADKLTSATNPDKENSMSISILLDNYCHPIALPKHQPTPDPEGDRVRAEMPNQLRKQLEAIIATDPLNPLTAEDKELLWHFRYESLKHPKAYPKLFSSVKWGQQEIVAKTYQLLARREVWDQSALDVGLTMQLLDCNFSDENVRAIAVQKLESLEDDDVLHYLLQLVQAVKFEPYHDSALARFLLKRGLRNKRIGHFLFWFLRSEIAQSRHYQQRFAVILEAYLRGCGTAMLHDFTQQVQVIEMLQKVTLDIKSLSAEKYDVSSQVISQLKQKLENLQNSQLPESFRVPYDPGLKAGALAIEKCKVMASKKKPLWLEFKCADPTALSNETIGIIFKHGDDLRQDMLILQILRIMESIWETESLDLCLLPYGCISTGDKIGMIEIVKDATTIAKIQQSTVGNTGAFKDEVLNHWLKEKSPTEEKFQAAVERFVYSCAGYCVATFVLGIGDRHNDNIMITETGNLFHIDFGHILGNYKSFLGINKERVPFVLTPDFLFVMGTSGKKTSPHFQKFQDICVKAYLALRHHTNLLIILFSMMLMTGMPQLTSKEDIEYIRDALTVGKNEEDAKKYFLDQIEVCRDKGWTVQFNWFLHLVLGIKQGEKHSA
# ASSAY DETAILS: Test A: Enzymatic Activity Assay for Rec Human PI3Kγ (ADP-Glo)
# Type: biochemical
# APPLIED CONDITIONS: 20 μM ATP, 80 μM DiC8-PIP2, 1.2 nM PI3Kγ, 15 min pre-incubation, 60 min reaction
RESULT TYPE: PI3Kγ activity, pIC50

COMPOUND: CNS(=O)(=O)c1cc(-c2sc(NC(C)=O)nc2C)cc2c1C(=O)N(C(C)(C)C1CC1)C2 [Example 32]
TARGET ENTITY: recombinant human PI3Kγ (aa144-1102)-6His (Homo sapiens (Human))
PI3Kγ activity, pIC50: 9.0
--
COMPOUND: CC(=O)Nc1nc(C)c(-c2cc3c(c(S(=O)(=O)NC4CC4)c2)C(=O)N([C@@H](C)C2CC2)C3)s1 [Example 14]
TARGET ENTITY: recombinant human PI3Kγ (aa144-1102)-6His (Homo sapiens (Human))
PI3Kγ activity, pIC50: 9.0
--
COMPOUND: CC(=O)Nc1nc(C)c(-c2cc3c(c(S(=O)(=O)Nc4cccc(C#N)c4)c2)C(=O)N(C(C)C)C3)s1 [Example 37]
TARGET ENTITY: recombinant human PI3Kγ (aa144-1102)-6His (Homo sapiens (Human))
PI3Kγ activity, pIC50: 9.0
--
COMPOUND: CNS(=O)(=O)c1cc(-c2cnc3c(N)nccn23)cc2c1C(=O)N([C@@H](C)C1CC1)C2 [Example 31]
TARGET ENTITY: recombinant human PI3Kγ (aa144-1102)-6His (Homo sapiens (Human))
PI3Kγ activity, pIC50: 8.7
--
COMPOUND: CCCS(=O)(=O)Nc1cc(-c2sc(NC(C)=O)nc2C)cc2c1C(=O)N([C@@H](C)C1CC1)C2 [Example 24]
TARGET ENTITY: recombinant human PI3Kγ (aa144-1102)-6His (Homo sapiens (Human))
PI3Kγ activity, pIC50: 9.0
--
COMPOUND: CC(=O)Nc1nc(C)c(-c2cc3c(c(S(=O)(=O)Nc4cccc(C#N)c4)c2)C(=O)N([C@@H](C)C2CC2)C3)s1 [Example 36]
TARGET ENTITY: recombinant human PI3Kγ (aa144-1102)-6His (Homo sapiens (Human))
PI3Kγ activity, pIC50: 9.3
--
COMPOUND: CC(=O)Nc1nc(C)c(-c2cc3c(c(S(N)(=O)=O)c2)C(=O)N(C(C)C)C3)s1 [Example 21]
TARGET ENTITY: recombinant human PI3Kγ (aa144-1102)-6His (Homo sapiens (Human))
PI3Kγ activity, pIC50: 8.9
--
COMPOUND: CCNS(=O)(=O)c1cc(-c2sc(NC(C)=O)nc2C)cc2c1C(=O)N([C@@H](C)C1CC1)C2 [Example 15]
TARGET ENTITY: recombinant human PI3Kγ (aa144-1102)-6His (Homo sapiens (Human))
PI3Kγ activity, pIC50: 9.4
--
COMPOUND: CC(=O)Nc1nc(C)c(-c2cc3c(c(NS(=O)(=O)c4cn(C)nc4C)c2)C(=O)N([C@@H](C)C2CC2)C3)s1 [Example 29]
TARGET ENTITY: recombinant human PI3Kγ (aa144-1102)-6His (Homo sapiens (Human))
PI3Kγ activity, pIC50: 8.9
--
COMPOUND: CC(=O)Nc1nc(C)c(-c2cc3c(c(NS(=O)(=O)C(C)(C)C)c2)C(=O)N([C@@H](C)C2CC2)C3)s1 [Example 26]
TARGET ENTITY: recombinant human PI3Kγ (aa144-1102)-6His (Homo sapiens (Human))
PI3Kγ activity, pIC50: 9.0
--
COMPOUND: CC(=O)Nc1nc(C)c(-c2cc3c(c(NC(C)=O)c2)C(=O)N([C@@H](C)C2CC2)C3)s1 [Example 5]
TARGET ENTITY: recombinant human PI3Kγ (aa144-1102)-6His (Homo sapiens (Human))
PI3Kγ activity, pIC50: 9.0
--
COMPOUND: CC(=O)Nc1nc(C)c(-c2cc3c(c(S(=O)(=O)NC4COC4)c2)C(=O)N([C@@H](C)C2CC2)C3)s1 [Example 16]
TARGET ENTITY: recombinant human PI3Kγ (aa144-1102)-6His (Homo sapiens (Human))
PI3Kγ activity, pIC50: 9.2
--
COMPOUND: CC(=O)Nc1nc(C)c(-c2cc3c(c(NS(=O)(=O)CC4CC4)c2)C(=O)N([C@@H](C)C2CC2)C3)s1 [Example 28]
TARGET ENTITY: recombinant human PI3Kγ (aa144-1102)-6His (Homo sapiens (Human))
PI3Kγ activity, pIC50: 9.1
--
COMPOUND: CC(=O)Nc1nc(C)c(-c2cc3c(c(S(=O)(=O)NCC(F)(F)F)c2)C(=O)N([C@@H](C)C2CC2)C3)s1 [Example 20]
TARGET ENTITY: recombinant human PI3Kγ (aa144-1102)-6His (Homo sapiens (Human))
PI3Kγ activity, pIC50: 9.2
